- MEASUREMENT NOTES: in vivo
- MEASUREMENT CONDITIONS: mouse, in vivo, po; mice, p.o., deaths within one week; Weil's method; Example 9 as free base, others as fumarate; read-out: Acute Toxicity LD50
ASSAY ENDPOINT: LD50 at 168 h

* CCCOCCn1c(CN2CCN(C)CC2)nc2ccccc21 | 1010 mg/kg
* OCCN1CCN(Cc2nc3ccccc3n2Cc2ccc(F)cc2)CC1 [Compound A, reference compound] | 440 mg/kg
* CCOCCn1c(CN2CCNCC2)nc2ccccc21 | > 2000 mg/kg
* CCCN1CCN(Cc2nc3ccccc3n2CCOCC)CC1 | 303 mg/kg

Give its LD50 at 168 h value. Item: CCOCCn1c(CN2CCCNCC2)nc2ccccc21 1540 mg/kg

* * *

Here the recorded LD50 at 168 h is given for each entry.
- MEASUREMENT NOTES: in vivo
- MEASUREMENT CONDITIONS: mouse, in vivo, po; mice, p.o., deaths within one week; Weil's method; Example 9 as free base, others as fumarate; read-out: Acute Toxicity LD50
Respond numerically; units are mg/kg and should not be typed.

- CCOCCn1c(CN2CCCN(C)CC2)nc2ccccc21: 990
- C=COCCn1c(CN2CCN(C)CC2)nc2ccccc21: 698
- C#CCOCCn1c(CN2CCN(C)CC2)nc2ccccc21: 891

Quick one: LD50 at 168 h of CCOCCn1c(CN2CCN(C)CC2)nc2ccccc21 ? 789

Tell me the measured LD50 at 168 h of C#CCOCCn1c(CN2CCCN(C)CC2)nc2ccccc21 , please. 524

So what's the measured LD50 at 168 h for this one? C=CCOCCn1c(CN2CCN(C)CC2)nc2ccccc21 657

For CCOCCn1c(CN2CCN(CC)CC2)nc2ccccc21 , what is its reported LD50 at 168 h? 904
